Quick list: TGI per entry.
Test system: CAKI-1 renal
Assay: NCI tumour cell line growth inhibition, 48 h

>  <compound>
CCOP(=O)(/C=C\n1cc(C)c(=O)[nH]c1=O)OCC

>  <TGI>
> 100 µM

$$$$
>  <compound>
O=C1C(c2ccccc2)=C(O)c2cccc3cccc1c23

>  <TGI>
> 100 µM

$$$$

What value of TGI has been reported for the following compound? CO/N=C1\CC(NC(=O)CNC(=O)OC(C)(C)C)c2ccsc21 (stereo not drawn)
> 100 µM

* * *

System: HOP-92 NSCLC
Test: NCI tumour cell line growth inhibition, 48 h
endpoint: TGI

Guide cases for TGI, answers given:
>  <compound>
O=[N+]([O-])c1ccc(-n2nnc(C3=NCCN3)c2-c2ccccc2)cc1

>  <TGI>
> 100 µM

$$$$
>  <compound>
O=C1Nc2ccc(Br)cc2C1=Nc1cccnc1

>  <TGI>
> 100 µM

$$$$

Now consider the entry below.
Quick one: TGI for OC(CCNC12CC3CC(CC(C3)C1)C2)c1ccccc1 (stereo not drawn) ?
> 100 µM

* * *

Tested on: OVCAR-5 ovarian
Experiment: NCI tumour cell line growth inhibition, 48 h
The following compounds are shown together with reported TGI values.

>  <structureNotation>
Cc1cc(C)nc(SC2=C(Nc3ccc(C)c(Cl)c3)C(=O)N(Cc3ccccc3)C2=O)n1

>  <obsValue>
> 160 µM

$$$$
>  <structureNotation>
COc1cc2c(cc1OC)[C@H](C)N1CCc3cc(OC)c(OC)cc3[C@@H]1C2

>  <obsValue>
> 100 µM

$$$$
>  <structureNotation>
O=c1[nH]nc(-c2ccccc2)n1/N=C\c1ccccc1

>  <obsValue>
> 100 µM

$$$$

# ---- query compound ----
I'd like to know its TGI. The compound in question is `C=C[C@@H](C)[C@H](NS(=O)(=O)c1ccc(C)cc1)C(=O)OCC`
> 100 µM

* * *

System: SN12C renal
Experiment: NCI tumour cell line growth inhibition, 48 h
endpoint: TGI

Here are 3 compounds together with their reported answers.
>  <compound>
COP(=O)(OC)C(Cc1cn(C(C)=O)c2ccccc12)C(=O)O (stereo not given)

>  <endpoint>
TGI

>  <obsValue>
> 100 µM

$$$$
>  <compound>
OCCO/N=C1\C(c2c(O)[nH]c3ccccc23)=Nc2ccccc21

>  <endpoint>
TGI

>  <obsValue>
> 100 µM

$$$$
>  <compound>
c1cncc(C2N3CCCCC3[C@@H]3c4[nH]c5ccccc5c4CCN23)c1 (stereo not given in full)

>  <endpoint>
TGI

>  <obsValue>
> 100 µM

$$$$

Which TGI is listed for CC(=O)OCC1OC(SC2=N/C(=C\c3ccc(Br)s3)C(=O)N2CN2CCOCC2)C(OC(C)=O)C(OC(C)=O)C1OC(C)=O (stereo not given) ?
32.2 µM

I have this compound here, CC1(C)C2CCC13C(=O)C1OC3(C2)C2C(=O)c3ccccc3C(=O)C12 (stereo not given) , and I need its recorded TGI.
> 100 µM

* * *

System: NCI-H23 lung
Test: NCI tumour cell line growth inhibition, 48 h; in the data active means GI50 below about 0.43 µM; inactive means the rest
Answer with one of the outcomes y (active), n (inactive)

>  <compound>
COc1cc(C(=O)c2c(-c3ccccc3)oc3c(OC)cccc23)cc(OC)c1OC

>  <cat>
y

$$$$

// return assay outcome for CN(C)CCN1C(=O)c2c(c3c4ccccc4n4c3c3c2c2ccccc2n3C2CC(O)C(O)C4(C)O2)C1=O (centres undefined)
n

Returns: the outcome recorded for `Cc1cc([N+](=O)[O-])c(NS(=O)(=O)c2cccc(C(=O)O)c2)cc1-c1cccnc1` in this assay.
n

For `O=C(Nc1ccc(Br)cc1F)c1cc(I)ccc1O` , what call appears in the results of this test?
n

* * *

Entries and their TGI
Test system: TK-10 renal
Test: NCI tumour cell line growth inhibition, 48 h

Recorded results for 3 molecules are shown here.
>  <molecule>
Cc1ccc(OCC2OC(n3cnc4c(Cl)nc(N)nc43)CC2Oc2ccc(C)cc2)cc1 (centres undefined)

>  <TGI>
> 100 µM

$$$$
>  <molecule>
COc1ccc(CC(N)c2ccc(OC)cc2)cc1 (centres undefined)

>  <TGI>
> 100 µM

$$$$
>  <molecule>
C=C[C@@H](C)[C@H](NS(=O)(=O)c1ccc(C)cc1)C(=O)OCC

>  <TGI>
> 100 µM

$$$$

Can you look up the measured TGI of `CC(=O)N1CC(C)(C)c2c(C)c(O)c(C)c(C)c21` for me?
> 100 µM

* * *

Tested on: SF-268 CNS
Test: NCI tumour cell line growth inhibition, 48 h
As shown below, each of these compounds has a reported TGI value.

Worked set:
>  <compound>
Cc1c(Cl)cccc1C(=O)Nc1nc2c(s1)CN(C(=O)c1ccc(C(F)(F)F)cc1)CC2

>  <measuredOn>
SF-268 CNS

>  <obsValue>
> 50 µM

$$$$
>  <compound>
OC1(c2ccccc2)CCN(Cc2c[nH]c3ccccc23)CC1

>  <measuredOn>
SF-268 CNS

>  <obsValue>
> 100 µM

$$$$
>  <compound>
O=C(Nc1ccc(Br)cc1F)c1cc(I)ccc1O

>  <measuredOn>
SF-268 CNS

>  <obsValue>
29.6 µM

$$$$

Short answer please: TGI, SF-268 CNS, entry `CCOP(=O)(/C=C\n1cc(C)c(=O)[nH]c1=O)OCC`
> 100 µM

Form field: TGI recorded for O=C(c1ccc(Cl)cc1Cl)C1[C@H]2C(=O)N(c3ccc(Cc4ccc(N5C(=O)[C@@H]6ON(c7ccccc7)C(C(=O)c7ccc(Cl)cc7Cl)[C@@H]6C5=O)cc4)cc3)C(=O)[C@H]2ON1c1ccccc1 (stereo not given in full) with SF-268 CNS (enter value)
> 50 µM

SF-268 CNS / TGI / `Cc1cc(-c2nc3cc(F)ccc3s2)ccc1NC(=O)[C@@H](N)CCCCN` : value?
22.6 µM

Give TGI (SF-268 CNS) of the following compound: `Cc1cc([N+](=O)[O-])c(NS(=O)(=O)c2cccc(C(=O)O)c2)cc1-c1cccnc1`
> 100 µM

Which measured TGI belongs to `COC(=O)c1cc(=O)[nH]c(=O)[nH]1` , tested on SF-268 CNS?
> 100 µM

Checklist item: TGI tested on SF-268 CNS, entry `Cc1ccc(S(=O)(=O)n2c3ccc(Br)cc3c3nc4ccccc4nc32)cc1` , value?
> 100 µM

Value wanted: TGI (SF-268 CNS) of entry CN(C(=O)C12C3C4C1C1C2C3C41C(N)=O)C(C)(C)C (stereo not given)
> 100 µM

Item: `COc1cc2ccnc3c2c(c1OC)-c1coc(SC)c1-3` Test system: SF-268 CNS Read-out: TGI Value: ?
> 100 µM

Checklist item: TGI tested on SF-268 CNS, entry `O=C1NC(Nc2ccccc2)=NC(C(F)(F)F)(C(F)(F)F)N1` , value?
> 100 µM

API: value(readout=TGI, system=SF-268 CNS) for record `CC(=O)Nc1ccc(S(=O)(=O)N/N=C/CN2C(=O)c3ccccc3C2=O)cc1`
> 100 µM

Quick check: TGI on SF-268 CNS, item `Cc1ccc([S@](=O)c2occc2C=O)cc1` ?
14.9 µM

What TGI appears in the records for this compound with SF-268 CNS? `CSc1nnc(CCC(=O)Nc2c(C)cccc2C)o1`
> 100 µM

# get_value(readout= TGI, system= SF-268 CNS) for Cc1csc(NC23CC4CC(CC(C4)C2)C3)[n+]1C(P(=O)([O-])O)P(=O)(O)O (stereo not given)
> 100 µM

Recall the recorded TGI for `O=[N+]([O-])c1ccc2sc(C=Nc3cnccn3)cc2c1` with SF-268 CNS and state it.
> 100 µM

* * *

Tested on: HCC-2998 colon
Assay: NCI tumour cell line growth inhibition, 48 h; in the data active = GI50 below about 0.43 µM; inactive = the rest
Give one outcome, nothing more. List: class 1 (active), class 0 (inactive)

Tell me the recorded outcome of this test for `COc1ccc(C/C(C)=C(/c2ccc(OCCN3CCCCC3)cc2)c2ccc(OC(=O)NCc3ccccc3)cc2)cc1` .
class 0

How was `O=C(N/N=C/C=C/c1ccc([N+](=O)[O-])o1)c1cc2ccccc2cc1O` classified in this test?
class 0

So what was the verdict on CN(C)CCN1C(=O)c2c(c3c4ccccc4n4c3c3c2c2ccccc2n3C2CC(O)C(O)C4(C)O2)C1=O (configuration not stated) in this test?
class 0

Hey, what did the test say about `Cc1cc(C)nc(SC2=C(Nc3ccc(C)c(Cl)c3)C(=O)N(Cc3ccccc3)C2=O)n1` ?
class 0

Hi, sorry to bother you, what did the test record for Nc1ncnc2c1N=C(c1ccc3c(c1)OCO3)CC(c1ccc([N+](=O)[O-])cc1)N2 (configuration not stated) ?
class 0

Answer briefly: the call reported for `Cc1cc2c(C(C)C)c(O)c(O)cc2c(O)c1-c1c(C)cc2c(C(C)C)c(O)c(O)cc2c1O` in this assay.
class 0

# lookup: test call for `CSC1=C(N)C(=O)c2[nH]cc(CO)c2C1=N`
class 1
